target: TJP2_1, Q9UDY2; experiment: holdup assay; set-up: key: below the threshold = too weak to quantify, mostly under pKd 3.1 to 4; conditions: plain residues with an end cap or a label only (N-terminal biotin on a linker: ahx)
Sequence (Q9UDY2 24-128): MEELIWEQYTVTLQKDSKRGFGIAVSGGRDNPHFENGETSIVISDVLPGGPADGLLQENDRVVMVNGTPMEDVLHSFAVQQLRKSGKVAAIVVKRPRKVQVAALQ
quantity.name: pKd

Some binders with known pKd results, for comparison:
APSRKLNTEI [TIAM1, Q13009]: below the threshold
TESNLQTSSC [CGN, Q9P2M7]: below the threshold
EKQAKGDTEF [CACYBP, Q9HB71]: below the threshold
QPRTWLQSPV [RTKN, Q9BST9]: below the threshold
QDEKVKESYV [ABCA1, O95477]: 4.36

INPUT: Which pKd value belongs to TQKFRASTAL [FRMPD1, Q5SYB0] ?
OUTPUT: below the threshold

INPUT: Which pKd value belongs to TEAKLTETNA [MYO18A, Q92614] ?
OUTPUT: below the threshold

INPUT: Which pKd value belongs to QNTDDVQTSF [ACE2, Q9BYF1] ?
OUTPUT: below the threshold

INPUT: Which pKd value belongs to HTHSYIETHV [CNKSR2, Q8WXI2] ?
OUTPUT: 4.46
